# credit: ChEMBL document CHEMBL5360672

Target: Estrogen receptor (Homo sapiens) (UniProt P03372)
Sequence (whole entry): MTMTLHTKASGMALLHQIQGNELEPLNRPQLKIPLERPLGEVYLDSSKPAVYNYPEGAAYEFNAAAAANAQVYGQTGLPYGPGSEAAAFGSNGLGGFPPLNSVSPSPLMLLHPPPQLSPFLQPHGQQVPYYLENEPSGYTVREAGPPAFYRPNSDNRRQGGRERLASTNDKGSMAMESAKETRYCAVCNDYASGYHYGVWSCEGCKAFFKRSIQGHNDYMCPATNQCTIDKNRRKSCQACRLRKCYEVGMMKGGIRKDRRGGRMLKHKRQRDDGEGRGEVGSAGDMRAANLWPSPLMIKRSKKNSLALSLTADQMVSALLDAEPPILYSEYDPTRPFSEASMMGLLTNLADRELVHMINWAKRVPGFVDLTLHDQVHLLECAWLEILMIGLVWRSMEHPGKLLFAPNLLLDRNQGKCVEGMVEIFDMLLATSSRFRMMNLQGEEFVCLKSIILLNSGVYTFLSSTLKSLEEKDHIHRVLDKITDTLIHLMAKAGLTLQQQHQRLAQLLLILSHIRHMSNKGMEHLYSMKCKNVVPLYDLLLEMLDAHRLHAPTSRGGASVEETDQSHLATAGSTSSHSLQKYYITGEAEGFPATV
Assay: Binding affinity to human ERalpha assessed as relative binding affinity incubated under vibration for 1 min followed by 2 hrs incubation under dark condition by fluorescence polarization assay relative to estradiol
Settings: time 121.0 min
Catalogue of RBA values
Response body: numeric value in %, unit text excluded.

• CCN(c1cccc(OC)c1)S(=O)(=O)C1CC2OC1C(c1ccc(NC(=O)CCCCC[Se]C#N)cc1)=C2c1ccc(O)cc1 (stereo not drawn) = 0.51

Exam item: Could you share what RBA was measured for N#C[Se]CCCCCC(=O)Nc1ccccc1 , tested on Estrogen receptor (Homo sapiens) (UniProt P03372)?
Marked response: 0.04

Exam item: Query RBA on Estrogen receptor (Homo sapiens) (UniProt P03372) for CCN(c1ccc(OC)cc1)S(=O)(=O)C1CC2OC1C(c1ccc(NC(=O)CCC[Se]C#N)cc1)=C2c1ccc(O)cc1 (stereo not drawn)
Marked response: 1.07

Exam item: Reported RBA for Estrogen receptor (Homo sapiens) (UniProt P03372), given N#C[Se]CCCC(=O)Nc1ccc(C2=C(c3ccc(O)cc3)C3CC(S(=O)(=O)Oc4ccccc4)C2O3)cc1 (stereo not drawn) ?
Marked response: 1.05

Exam item: Param readout= RBA; system= Estrogen receptor (Homo sapiens) (UniProt P03372); entry= N#C[Se]CCCCCC(=O)Nc1ccc(C2=C(c3ccc(O)cc3)C3CC(S(=O)(=O)N(CC(F)(F)F)c4cccc(Cl)c4)C2O3)cc1 (stereo not drawn) ; returns value.
Marked response: 4.4

Exam item: Notebook: pull reported RBA for Estrogen receptor (Homo sapiens) (UniProt P03372), entry COc1ccccc1OS(=O)(=O)C1CC2OC1C(c1ccc(NC(=O)CCCCC[Se]C#N)cc1)=C2c1ccc(O)cc1 (stereo not drawn)
Marked response: 16

Exam item: Hello, I am looking for reported RBA with Estrogen receptor (Homo sapiens) (UniProt P03372) for CCN(c1ccc(OC)cc1)S(=O)(=O)C1CC2OC1C(c1ccc(NC(=O)CCCCCCC[Se]C#N)cc1)=C2c1ccc(O)cc1 (stereo not drawn) . Could you help?
Marked response: 2.61

Exam item: Test system Estrogen receptor (Homo sapiens) (UniProt P03372); read-out RBA; what value for N#C[Se]CCCCCC(=O)Nc1ccc(C2=C(c3ccc(O)cc3)C3CC(S(=O)(=O)Oc4ccc(O)cc4)C2O3)cc1 (stereo not drawn) ?
Marked response: 7.83
